Entry source: the supplement of paper PMC10567573

B1: ANKRD17 (parent)
chain: EMVRFLLEAGADQEHKTDEMHTAL

variants of: B1; experiment: protein stability index of a GFP-peptide fusion (GPS, HEK-293T) (PSI 1-6); higher = more stable; conditions: c terminus: a fixed tail appended;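 further: lentivirally expressed fusions sorted by FACS into six bins by GFP to DsRed ratio, PSI derived from sequencing read proportions per bin multiplied by bin number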
Given measured protein stability index, output yes (1) if it is greater than or equal to 3 and no (0) if not.

[
  {
    "mutation_key": "G10Q",
    "assigned_class": "no (0)"
  }
]

Request: Please indicate if the recorded protein stability index for `F5Y` meets or exceeds 3.
Result: no (0)

Request: Tell me whether protein stability index is at least 3 here: `M20I`
Result: no (0)

Request: Form field: protein stability index at least 3? Entry: `M2V`
Result: no (0)
